Target: Cholesterol side-chain cleavage enzyme, mitochondrial (Bos taurus, UniProt P00189)
Sequence (P00189 whole entry): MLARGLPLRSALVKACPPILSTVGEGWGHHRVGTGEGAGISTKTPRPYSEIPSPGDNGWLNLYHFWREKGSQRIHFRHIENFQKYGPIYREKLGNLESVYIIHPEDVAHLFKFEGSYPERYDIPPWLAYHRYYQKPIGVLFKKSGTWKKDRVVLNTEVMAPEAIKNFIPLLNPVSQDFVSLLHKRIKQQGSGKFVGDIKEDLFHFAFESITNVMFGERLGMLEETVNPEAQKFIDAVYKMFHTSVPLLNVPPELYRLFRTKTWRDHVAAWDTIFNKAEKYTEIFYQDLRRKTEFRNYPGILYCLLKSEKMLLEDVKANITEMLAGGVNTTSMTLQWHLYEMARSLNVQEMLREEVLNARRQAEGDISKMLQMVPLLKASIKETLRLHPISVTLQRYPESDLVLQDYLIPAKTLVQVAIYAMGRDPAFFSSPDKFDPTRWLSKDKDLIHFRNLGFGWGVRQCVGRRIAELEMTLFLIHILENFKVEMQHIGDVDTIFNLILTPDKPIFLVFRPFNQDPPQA
Result type: pIC50
In simple prose, pIC50 is minus the logarithm base ten of a concentration in moles per litre.

The recorded pIC50 with Cholesterol side-chain cleavage enzyme, mitochondrial (Bos taurus, UniProt P00189) for Nc1ccc(C23CC2C(=O)N(Cc2ccccc2)C3=O)cc1 (configuration not stated) was 3.54

GET /values?item= CN1C(=O)C2CC2(c2ccc(N)cc2)C1=O (configuration not stated) &system= Cholesterol side-chain cleavage enzyme, mitochondrial (Bos taurus, UniProt P00189) returns pIC50: 3.34

These data points were gathered from ChEMBL document CHEMBL1124116.
